I'd be grateful if you could share measured Plant response rating (0 to 100 scale), Soybean for these entries.
- Tested on: soybean (Glycine max)
- PROTOCOL_NOTES: Test C preemergence, soybean
- Type: in vivo
- CONDITIONS_USED: 31 g ai/ha Preemergence; 0 is no effect, 100 is complete control
Reply: number alone, nothing else.

*Q* GET /values?readout=Plant response rating (0 to 100 scale), Soybean&item= Cc1c(NS(=O)(=O)C(F)(F)F)cc(N2CCCC(OC3CCC3)C2=O)c(C)c1F (centres unmarked)
*A* 90

*Q* GET /values?readout=Plant response rating (0 to 100 scale), Soybean&item= Cc1cc(C)c(N(COC(=O)C(C)(C)C)S(=O)(=O)C(F)(F)F)cc1N1CCC(OCC2CC2(F)F)C1=O (centres unmarked)
*A* 0

*Q* GET /values?readout=Plant response rating (0 to 100 scale), Soybean&item= Cc1cc(C)c(N2CCC(OCC3CCC3)C2=O)cc1NS(=O)(=O)C(F)(F)F (centres unmarked)
*A* 10

*Q* GET /values?readout=Plant response rating (0 to 100 scale), Soybean&item= Cc1cc(C)c(N2CCC(OCC3CC3(F)F)C2=O)cc1NS(=O)(=O)C(F)(F)F (centres unmarked)
*A* 60

*Q* GET /values?readout=Plant response rating (0 to 100 scale), Soybean&item= CO/N=C1\CCN(c2cc(NS(=O)(=O)C(F)(F)F)c(C)cc2C)C1=O
*A* 80

* * *

- Tested on: ryegrass, Italian (Italian ryegrass, Lolium multiflorum)
- PROTOCOL_NOTES: Test C postemergence, Italian ryegrass
- Type: in vivo
- CONDITIONS_USED: 125 g ai/ha Postemergence; 0 is no effect, 100 is complete control
- Description: […]
I'd be grateful if you could share measured Plant response rating (0 to 100 scale), Ryegrass, Italian for these entries.
Reply: number alone, nothing else.

*Q* GET /values?readout=Plant response rating (0 to 100 scale), Ryegrass, Italian&item= CO/N=C1\CCN(c2cc(NS(=O)(=O)C(F)(F)F)c(C)cc2C)C1=O
*A* 80

*Q* GET /values?readout=Plant response rating (0 to 100 scale), Ryegrass, Italian&item= Cc1c(N2CCC(OC3CC3)C2=O)cc(N(COC(=O)C(C)(C)C)S(=O)(=O)C(F)(F)F)c(C)c1F (stereo not shown)
*A* 100

*Q* GET /values?readout=Plant response rating (0 to 100 scale), Ryegrass, Italian&item= Cc1cc(C)c(N(C(=O)OC(C)C)S(=O)(=O)C(F)(F)F)cc1N1CCC(OC2CC2)C1=O (stereo not shown)
*A* 0

*Q* GET /values?readout=Plant response rating (0 to 100 scale), Ryegrass, Italian&item= C#CCO/N=C1\CCN(c2cc(NS(=O)(=O)C(F)(F)F)c(C)cc2C)C1=O
*A* 60

* * *

- Test system: goosegrass (Eleusine indica)
- PROTOCOL_NOTES: Test C preemergence, goosegrass
- Format: in vivo
- CONDITIONS_USED: 125 g ai/ha Preemergence; 0 is no effect, 100 is complete control
I'd be grateful if you could share measured Plant response rating (0 to 100 scale), Goosegrass for these entries.
Reply: number alone, nothing else.

*Q* Give the reported Plant response rating (0 to 100 scale), Goosegrass for Cc1cc(C)c(N2CCC(OC3COC3)C2=O)cc1NS(=O)(=O)C(F)(F)F (stereo not drawn) (system: goosegrass (Eleusine indica)).
*A* 100

*Q* Give the reported Plant response rating (0 to 100 scale), Goosegrass for Cc1cc(C)c(N2CC/C(=N\O)C2=O)cc1NS(=O)(=O)C(F)(F)F (system: goosegrass (Eleusine indica)).
*A* 100

*Q* Give the reported Plant response rating (0 to 100 scale), Goosegrass for Cc1cc(C)c(N2CCC(OCC3CCC3(F)F)C2=O)cc1NS(=O)(=O)C(F)(F)F (stereo not drawn) (system: goosegrass (Eleusine indica)).
*A* 100

*Q* Give the reported Plant response rating (0 to 100 scale), Goosegrass for C=CCO/N=C1\CCN(c2cc(NS(=O)(=O)C(F)(F)F)c(C)cc2C)C1=O (system: goosegrass (Eleusine indica)).
*A* 100

*Q* Give the reported Plant response rating (0 to 100 scale), Goosegrass for Cc1c(NS(=O)(=O)C(F)(F)F)cc(N2CCC(OCC3CC3)C2=O)c(C)c1F (stereo not drawn) (system: goosegrass (Eleusine indica)).
*A* 100

*Q* Give the reported Plant response rating (0 to 100 scale), Goosegrass for COC(=O)N(c1cc(N2CCC(OC3CC3)C2=O)c(C)cc1C)S(=O)(=O)C(F)(F)F (stereo not drawn) (system: goosegrass (Eleusine indica)).
*A* 0

Where do these numbers come from? They come from patent US20240158348A1.
